Target: C17,20-lyase (Rattus norvegicus, UniProt P11715)
Construct: approximately 1 mg rat testicular microsomal protein in 450 microliters phosphate buffer; from tissue; host or cells: testes of adult male Sprague-Dawley rats (Charles River), microsomal fraction
Sequence (P11715 1-507): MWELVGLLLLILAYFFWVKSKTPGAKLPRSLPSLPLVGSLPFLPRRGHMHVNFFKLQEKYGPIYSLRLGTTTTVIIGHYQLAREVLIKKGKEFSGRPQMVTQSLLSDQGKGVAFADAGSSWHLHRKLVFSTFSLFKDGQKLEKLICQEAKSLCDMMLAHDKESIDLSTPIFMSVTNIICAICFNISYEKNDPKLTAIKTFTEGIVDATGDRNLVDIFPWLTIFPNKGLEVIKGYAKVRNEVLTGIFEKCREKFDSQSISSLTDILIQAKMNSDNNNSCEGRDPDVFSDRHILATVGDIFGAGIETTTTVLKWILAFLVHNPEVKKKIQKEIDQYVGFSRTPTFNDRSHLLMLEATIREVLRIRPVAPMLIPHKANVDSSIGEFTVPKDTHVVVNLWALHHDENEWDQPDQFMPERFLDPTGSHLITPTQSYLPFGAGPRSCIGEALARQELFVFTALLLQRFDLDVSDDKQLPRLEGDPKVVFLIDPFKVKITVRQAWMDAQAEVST
Assay: C17,20-lyase assay, rat testicular microsomes (Example 1, Table 1)
Type: biochemical
Settings: rat testicular microsomes, 17(alpha)-hydroxyprogesterone substrate, 30 min, 37 C; N.I. = no inhibition; read-out: C17,20-lyase Ki
Property name: pKi
Note on pKi: it is the negative log10 of concentration, concentration in mol/L.

Q: Fill in pKi for record CC(=O)N1CCN(c2ccc(OCC3COC(Cn4ccnc4)(c4ccc(Cl)cc4Cl)O3)cc2)CC1 (stereo not shown) [Ketoconazole, reference compound]
Result: 5.44

---

Target: 17(alpha)-hydroxylase (Rattus norvegicus, UniProt P11715)
Construct: approximately 1 mg rat testicular microsomal protein in 450 microliters phosphate buffer; from tissue; host or cells: testes of adult male Sprague-Dawley rats (Charles River), microsomal fraction
Experiment: 17(alpha)-hydroxylase assay, rat testicular microsomes (Example 1, Table 1)
Type: biochemical
Settings: rat testicular microsomes, progesterone substrate, 30 min, 37 C; N.I. = no inhibition; read-out: 17(alpha)-hydroxylase Ki
Property name: pKi
Note on pKi: it is the negative log10 of concentration, concentration in mol/L.

Q: Fill in pKi for record CC(=O)N1CCN(c2ccc(OCC3COC(Cn4ccnc4)(c4ccc(Cl)cc4Cl)O3)cc2)CC1 (stereo not shown) [Ketoconazole, reference compound]
Result: 4.40

---

Target: rat testicular 17(alpha)-hydroxylase/C17,20-lyase (Rattus norvegicus, UniProt P11715)
Construct: rat testicular homogenates (prepared from 220-250g adult male Sprague-Dawley rats); from tissue; host or cells: testes of adult male Sprague-Dawley rats, homogenate
Assay: Hydroxylase/lyase assay, rat testicular homogenates, [21-14C]progesterone (Example 4, Table 3)
Type: biochemical
Details: 0.75 h; [I] = 10 × [S]; progesterone 40uM, pH 7.4, 45 min, 37 C; read-out: Inhibition of 17(alpha)-hydroxylase/C17,20-lyase (%), [I] = 10 × [S]
The following compounds are shown together with reported inhibition at 400 µM values.
Reply with just the number (in %).

As a guide, the following entries are already answered.
{"Structure string": "C[C@H](C=NN(C)C)[C@H]1CC[C@H]2[C@@H]3CCC4=CC(=O)CC[C@]4(C)[C@H]3CC[C@]12C", "inhibition at 400 µM [%]": 52.7}
{"Structure string": "CC(=O)OC1=CC2=CC[C@H]3[C@@H]4CC[C@H]([C@H](C)C#N)[C@@]4(C)CC[C@@H]3[C@@]2(C)CC1", "inhibition at 400 µM [%]": 67.2}
{"Structure string": "CC(=NN(C)C)C1=CC[C@H]2[C@@H]3CC=C4C[C@@H](O)CC[C@]4(C)[C@H]3CC[C@]12C", "inhibition at 400 µM [%]": 2.34}

Q: Fill in inhibition at 400 µM for record `CC(=NN)[C@H]1CC[C@H]2[C@@H]3CC=C4C[C@@H](O)CC[C@]4(C)[C@H]3CC[C@]12C`
Result: 25.9

Q: Fill in inhibition at 400 µM for record `CC(=O)[C@@]12O[C@@H]1C[C@H]1[C@@H]3CCC4=CC(=O)CC[C@]4(C)[C@H]3CC[C@@]12C`
Result: 64.2

Provenance of the data: patent US5264427A
